Readings of Aortic Ring contraction Emax (%) for the listed binders
- tested.on: T1, UT receptor present in rat aortic ring (rat, UniProt P49684 1-386)
- T1 sequence (looked up): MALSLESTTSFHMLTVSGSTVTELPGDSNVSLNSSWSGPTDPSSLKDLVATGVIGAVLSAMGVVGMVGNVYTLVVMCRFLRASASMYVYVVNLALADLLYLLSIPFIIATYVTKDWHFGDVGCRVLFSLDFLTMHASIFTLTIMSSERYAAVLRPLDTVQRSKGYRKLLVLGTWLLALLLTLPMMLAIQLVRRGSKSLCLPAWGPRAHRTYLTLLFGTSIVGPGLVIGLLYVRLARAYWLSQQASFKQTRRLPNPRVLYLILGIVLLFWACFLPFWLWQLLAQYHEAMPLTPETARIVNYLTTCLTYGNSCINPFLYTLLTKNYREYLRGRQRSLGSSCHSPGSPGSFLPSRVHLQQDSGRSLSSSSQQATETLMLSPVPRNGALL
- protocol.text: cell-based or functional assay
Numbered stars: 1 amine (or outer) side, 2 acyl side, 3 side chain; on linkers, the order of the positions; unused ones are H or OH. Bridge positions count the residues as written; N and C are the ends. Square brackets hold non-standard residues; d marks the D form. Ends that are not written are not given here. dTiq = D-1,2,3,4-tetrahydroisoquinoline-1-carboxylic acid, O=C([C@H]1c2ccccc2CCN1[*:1])[*:2]; dTic = O=C(O)[C@H]1Cc2ccccc2CN1; dPhg = N[C@@H](C(=O)O)c1ccccc1; Phg = N[C@H](C(=O)O)c1ccccc1

| binder | Aortic Ring contraction Emax (%) |
| --- | --- |
| H-ACF[Phg]KYCV-OH (disulfide 2-7, H-Ala-Cys-Phe-Phg-Lys-Tyr-Cys-Val-OH; also called compound 14) [[Phg^4]URP] | 102 % of KCl (40 mM) contraction |
| H-ACF[dPhg]KYCV-OH (disulfide 2-7, also called compound 15) [[D-Phg^4]URP] | 116 % of KCl (40 mM) contraction |
| ACF[dTiq]KYCV (disulfide 2-7, also called compound 17) [[D-Tiq^4]URP] | 113 % of KCl (40 mM) contraction |
| H-ACFWKYCV-OH (disulfide 2-7; SMILES CC(C)[C@H](NC(=O)[C@@H]1CSSC[C@H](NC(=O)[C@H](C)N)C(=O)N[C@@H](Cc2ccccc2)C(=O)N[C@@H](Cc2c[nH]c3ccccc23)C(=O)N[C@@H](CCCCN)C(=O)N[C@@H](Cc2ccc(O)cc2)C(=O)N1)C(=O)O) [urotensin II-related peptide (URP)] | 100 % of KCl (40 mM) contraction |

// switching to the query binder
Please report the recorded Aortic Ring contraction Emax (%) for ACF[dTic]KYCV (disulfide 2-7) [[D-Tic^4]URP] .
128 % of KCl (40 mM) contraction
